# Tested on: M. tuberculosis H37Rv growth inhibition with meropenem
# Test name: dose response, H37Rv, with and without meropenem (AID 434987);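 further: growth over 7 days at 37 °C before Alamar Blue read on day 9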
# Experimental conditions: M. tuberculosis H37Rv growth inhibition; measured here: IC50 without meropenem
For each of the compounds below, state its IC50.

CSc1nsc(SC)c1NC(=O)OCc1ccccc1; > 100 µM
COc1ccc2ccccc2c1/C=N/NC(=O)c1cccc(Br)c1; > 100 µM
CCn1c2ccccc2c2cc(NC(=O)c3cccc(OC)c3OC)ccc21; > 100 µM
CC(=O)Nc1nonc1-c1nc2ccccc2n1CCC(C)C; > 100 µM

Please give IC50, item by item, for the list that follows.
1. Nc1cc(=O)nc(SCc2ccccc2)n1Cc1ccco1
2. O=C(CCN1c2ccccc2Sc2ccccc21)Oc1ccccc1
3. COCCCNc1nc(SCc2ccccc2)nc2sc3c(c12)CCC3

Result string:
["> 100 µM", "> 100 µM", "> 100 µM"]

Please give IC50, item by item, for the list that follows.
1. CS(=O)(=O)N(Cc1ccccc1)c1ccc(C(=O)N2CCN(c3cccc(Cl)c3)CC2)cc1
2. COc1ccc(NC(=O)CSc2nc(N)c(C(=O)Nc3ccc(N(C)C)cc3)s2)cc1

Result string:
1. > 100 µM
2. > 100 µM

Please give IC50, item by item, for the list that follows.
1. CC12CCC(C/C1=N/NC(=O)Nc1ccccc1)C2(C)C (configuration not stated)
2. CCN(CC)c1ccc(N=Cc2c(O)n(-c3ccc(Cl)cc3)c(=O)[nH]c2=O)cc1
3. COCCCNCCOCCOc1ccc(C)cc1Br

Result string:
> 100 µM
> 100 µM
> 100 µM

Please give IC50, item by item, for the list that follows.
1. CCCCN(CCCC)C(=S)N/N=C/c1c(C)[nH]n(-c2ccccc2)c1=O
2. COc1ccc(-c2cc(C(N)=O)nc(N3CCCCCC3)n2)cc1
3. CCOc1ccc2c(c1)c(C(C)=O)c(C)n2-c1ccccc1
4. Cc1ccc(C(=O)c2oc3ccccc3c2NC(=O)c2cc(-c3cc(C)ccc3O)n[nH]2)cc1
5. Cc1nc(SCC(=O)Nc2ccc(F)cc2)c(C#N)c(C)c1CC(=O)c1ccc(Br)cc1
6. CCC(CC)C(=O)Nc1ccc(Sc2ccc([N+](=O)[O-])cc2)cc1
7. COc1ccc(-c2csc(NC(=O)c3c(C)noc3C)n2)cc1
8. C/C(=N/NC(=O)c1ccc(Cl)s1)c1ccc(NC(=O)COc2ccc(Cl)cc2)cc1

Result string:
1: > 100 µM; 2: > 100 µM; 3: > 100 µM; 4: > 100 µM; 5: > 100 µM; 6: > 100 µM; 7: > 100 µM; 8: > 100 µM
